tested on: Phosphorylation of ERK½ in A549 cells; assay: Phospho-ERK½ MSD Assay in A549 cells; type: cell-based; details: Homo sapiens, A549, A549 cells; 4 hours compound treatment; 10 ng/mL EGF for 10 min; read-out: p-ERK IC50 (A549)
endpointLabel: IC50

Worked examples follow.
- compound: "C=CC(=O)N1CCN(c2snc3c(F)c(-c4cc(N)ccc4C)c(Cl)cc23)CC1"
  systemName: "Phosphorylation of ERK½ in A549 cells"
  IC50: "> 100 µM"
- compound: "C=CC(=O)N1CCN(c2snc3cc(-c4cc(O)cc5ccccc45)c(Cl)cc23)CC1"
  systemName: "Phosphorylation of ERK½ in A549 cells"
  IC50: "> 100 µM"

Kindly indicate its recorded IC50. Item: C=CC(=O)N1CCN(c2snc3c(F)c(-c4cc(O)cc5ccccc45)c(Cl)cc23)C[C@@H]1CO (racemic)
> 100 µM
